Data origin: paper PMC4274664

Molecular target: rAtACBP5 (Arabidopsis thaliana)
Sequence (Q8RWD9 whole entry): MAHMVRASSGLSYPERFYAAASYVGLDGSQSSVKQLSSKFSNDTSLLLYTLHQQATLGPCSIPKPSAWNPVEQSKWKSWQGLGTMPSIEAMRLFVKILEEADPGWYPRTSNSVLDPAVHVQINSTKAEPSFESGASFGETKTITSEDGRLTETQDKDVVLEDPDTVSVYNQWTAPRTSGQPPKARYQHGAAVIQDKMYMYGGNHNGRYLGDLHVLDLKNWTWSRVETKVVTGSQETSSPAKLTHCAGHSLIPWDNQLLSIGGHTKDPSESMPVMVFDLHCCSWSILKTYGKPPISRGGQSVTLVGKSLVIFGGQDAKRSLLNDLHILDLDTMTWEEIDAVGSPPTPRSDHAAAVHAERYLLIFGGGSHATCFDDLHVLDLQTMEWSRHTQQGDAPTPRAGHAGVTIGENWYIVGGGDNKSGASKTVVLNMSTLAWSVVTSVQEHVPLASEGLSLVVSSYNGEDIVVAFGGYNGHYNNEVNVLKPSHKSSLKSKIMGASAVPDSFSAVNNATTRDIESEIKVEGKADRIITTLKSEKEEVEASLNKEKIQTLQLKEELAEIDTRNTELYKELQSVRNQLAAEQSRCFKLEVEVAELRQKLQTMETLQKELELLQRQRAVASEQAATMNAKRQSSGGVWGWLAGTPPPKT
Test: ITC of acyl-CoA esters binding to rAtACBP5
Conditions: ITC, 30°C, 10 mM sodium phosphate buffer pH 7.0; mean of three±S.D.; in kcal/mol
// reported ΔG per item

Return reported ΔG; argument: CCCCCCCC/C=C\CCCCCCCC(=O)SCCNC(=O)CCNC(=O)[C@H](O)C(C)(C)COP(=O)(O)OP(=O)(O)OC[C@H]1O[C@@H](n2cnc3c(N)ncnc32)[C@H](O)[C@@H]1OP(=O)(O)O [18:1, oleoyl-CoA]
−5.7±0.0

---

Biological target: rAtACBP5 (Arabidopsis thaliana)
Experiment: ITC of acyl-CoA esters binding to rAtACBP5
Details: ITC, 30°C, 10 mM sodium phosphate buffer pH 7.0; mean of three±S.D.; in kcal/mol
assayEndpoint: ΔG

Examples with answers:
{"smilesEntry": "CCCCCCCCCCCCCC(=O)SCCNC(=O)CCNC(=O)[C@H](O)C(C)(C)COP(=O)(O)OP(=O)(O)OC[C@H]1O[C@@H](n2cnc3c(N)ncnc32)[C@H](O)[C@@H]1OP(=O)(O)O", "assayResult": "−6.1±0.0"}
{"smilesEntry": "CCCCC/C=C\\C/C=C\\CCCCCCCC(=O)SCCNC(=O)CCNC(=O)[C@H](O)C(C)(C)COP(=O)(O)OP(=O)(O)OC[C@H]1O[C@@H](n2cnc3c(N)ncnc32)[C@H](O)[C@@H]1OP(=O)(O)O", "assayResult": "−5.8±0.0"}

Consider the record given below.
Return reported ΔG; argument: CCCCCCCCCCCCCCCC(=O)SCCNC(=O)CCNC(=O)[C@H](O)C(C)(C)COP(=O)(O)OP(=O)(O)OC[C@H]1O[C@@H](n2cnc3c(N)ncnc32)[C@H](O)[C@@H]1OP(=O)(O)O
−6.2±0.0
